Numbers sourced from patent US8658604B2.

Biological target: Urokinase from human urine (Homo sapiens)
Test: Enzymatic assay, urokinase
Where a SMILES comes first, the peptide text is derived from it.
EXPERIMENTAL_ENDPOINT: Urokinase at 100 μM % (%)
Write the number in % without appending the unit.

Solved entries:
[[record]]
compound = "CCCC[C@@H]1NC(=O)[C@H](Cc2ccccc2)NC(=O)[C@H]2CCCN2C(=O)[C@H](Cc2ccc(O)cc2)NC(=O)[C@@H]2CSSC[C@H](NC1=O)C(=O)N[C@@H]([C@@H](C)O)C(=O)N[C@@H](C)C(=O)N[C@@H](CO)C(=O)N[C@@H]([C@@H](C)CC)C(=O)N1CCC[C@H]1C(=O)N1CCC[C@H]1C(=O)N[C@@H](CCC(N)=O)C(=O)N2 [Ex. 122] (HELM PEPTIDE1{[Nle].C.T.A.S.I.P.P.Q.C.Y.[dP].F}$PEPTIDE1,PEPTIDE1,2:R3-10:R3|PEPTIDE1,PEPTIDE1,1:R1-13:R2$$$V2.0)"
target_system = "Urokinase from human urine (Homo sapiens)"
obs_value = 11.1

[[record]]
compound = "CCCC[C@@H]1NC(=O)[C@H](CCC(N)=O)NC(=O)[C@H]2CCCN2C(=O)[C@H](Cc2ccc(O)cc2)NC(=O)[C@@H]2CSSC[C@H](NC1=O)C(=O)N[C@@H]([C@@H](C)O)C(=O)N[C@@H](C)C(=O)N[C@@H](CO)C(=O)N[C@@H]([C@@H](C)CC)C(=O)N1CCC[C@H]1C(=O)N1CCC[C@H]1C(=O)N[C@@H](CCC(N)=O)C(=O)N2 [Ex. 123] (HELM PEPTIDE1{[Nle].C.T.A.S.I.P.P.Q.C.Y.[dP].Q}$PEPTIDE1,PEPTIDE1,2:R3-10:R3|PEPTIDE1,PEPTIDE1,1:R1-13:R2$$$V2.0)"
target_system = "Urokinase from human urine (Homo sapiens)"
obs_value = 7.6


Noted for CCCC[C@@H]1NC(=O)[C@H]([C@@H](C)O)NC(=O)[C@@H]2CSSC[C@H](NC(=O)[C@H]([C@@H](C)CC)NC(=O)[C@@H]3CCCN3C(=O)[C@@H]3CCCN3C(=O)[C@H](CC(=O)O)NC(=O)[C@H](CO)NC1=O)C(=O)N[C@@H](Cc1ccc(O)cc1)C(=O)N1CCC[C@@H]1C(=O)N1CCC[C@H]1C(=O)N[C@@H](Cc1ccccc1)C(=O)N2 [Ex. 60] (HELM PEPTIDE1{F.C.T.[Nle].S.D.P.P.I.C.Y.[dP].P}$PEPTIDE1,PEPTIDE1,2:R3-10:R3|PEPTIDE1,PEPTIDE1,1:R1-13:R2$$$V2.0) : its Urokinase at 100 μM % reads 9

Noted for CC[C@H](C)[C@@H]1NC(=O)[C@@H]2CCCN2C(=O)[C@@H]2CCCN2C(=O)[C@H](CC(=O)O)NC(=O)[C@H](CO)NC(=O)[C@H](CCCCN)NC(=O)[C@H]([C@@H](C)O)NC(=O)[C@@H]2CSSC[C@H](NC1=O)C(=O)N[C@@H](Cc1ccc(O)cc1)C(=O)N1CCC[C@@H]1C(=O)N1CCC[C@H]1C(=O)N[C@@H](CCc1ccccc1)C(=O)N2 [Ex. 30] (HELM PEPTIDE1{[O=C([C@H](CCc1ccccc1)N[*:1])[*:2]].C.T.K.S.D.P.P.I.C.Y.[dP].P}$PEPTIDE1,PEPTIDE1,2:R3-10:R3|PEPTIDE1,PEPTIDE1,1:R1-13:R2$$$V2.0) : its Urokinase at 100 μM % reads 9
